Test: Pharmacokinetics after 21 days dosing in the efficacy study (plasma, tumor and brain concentrations; plasma AUC at steady state), Example 14
Assay type: in vivo, female BALB/c nude mice
Details: mouse, plasma, po; 1.5 mg/kg p.o. BID x 21 days; 0.25 h; mean ± SEM
Overview of recorded concentration at 0.25 h for various compounds
Provide the reading as a plain figure in ng/mL.

Could you please provide reported concentration at 0.25 h for CCN(C)S(=O)(=O)Nc1ccc(F)c(Oc2ccc3ncn([C@H]4COC5(CCN(C6CC7(C6)CN(c6cc8c(cc6F)c(N6CCC(=O)NC6=O)nn8C)C7)CC5)C4)c(=O)c3c2)c1C#N [Compound 26] ? Thanks!
1330

Could you please provide reported concentration at 0.25 h for CCN(C)S(=O)(=O)Nc1ccc(F)c(Oc2ccc3ncn(C4CC5(CCN(C6CC7(C6)CN(c6cc8c(cc6F)c(N6CCC(=O)NC6=O)nn8C)C7)CC5)C4)c(=O)c3c2)c1C#N (centres unmarked) [Compound 141] ? Thanks!
702

---

Assay: Pharmacokinetics in female BALB/c nude mice bearing A375 xenografts, 1 day dosing (PK and PD study): plasma, tumor and brain concentrations, AUC
Format: in vivo
Details: mouse, plasma, po, 0.75 mg/kg, 0.75 mg/kg p.o. BID × 1 day; post 2nd dose; 36 h; read-out: Mean Concentration in Plasma ± SEM
QUANTITY_NAME: concentration at 36 h

Could you please provide reported concentration at 36 h for CCN(C)S(=O)(=O)Nc1ccc(F)c(Oc2ccc3ncn(C4CC5(CCN(C6CC7(C6)CN(c6cc8c(cc6F)c(N6CCC(=O)NC6=O)nn8C)C7)CC5)C4)c(=O)c3c2)c1C#N (stereo not shown) ? Thanks!
0.764 ng/mL

---

Assay: Pharmacokinetics in female BALB/c nude mice bearing A375 xenografts, 1 day dosing (PK and PD study): plasma, tumor and brain concentrations, AUC
Type: in vivo
Settings: mouse, plasma, po, 100 mg/kg, 100 mg/kg p.o. QD × 1 day; 24 h; read-out: Mean Concentration in Plasma ± SEM
QUANTITY_NAME: concentration at 24 h (ng/mL)
Provide the reading as a plain figure in ng/mL.

Could you please provide reported concentration at 24 h for CC(C)(C)c1nc(-c2cccc(NS(=O)(=O)c3c(F)cccc3F)c2F)c(-c2ccnc(N)n2)s1 [Dabrafenib, dabrafenib, reference compound] ? Thanks!
0.616

---

Experiment: Example 6 pharmacokinetics assay for PKPD study (plasma, tumor, liver)
Assay type: in vivo, BALB/c nude mice
Details: mouse, plasma, po; 35 mg/kg, single dose; 12 h; read-out: Concentration in Plasma (mean ± SEM)
QUANTITY_NAME: concentration at 12 h (ng/mL)
Provide the reading as a plain figure in ng/mL.

Could you please provide reported concentration at 12 h for COC(=O)N[C@@H](C)CNc1nccc(-c2cn(C(C)C)nc2-c2cc(Cl)cc(NS(C)(=O)=O)c2F)n1 [Encorafenib, encorafenib, reference compound] ? Thanks!
17.3

---

Assay: Pharmacokinetics in female BALB/c nude mice bearing A375 xenografts, 1 day dosing (PK and PD study): plasma, tumor and brain concentrations, AUC
Assay type: in vivo
Details: mouse, tumor, po; 2 mg/kg p.o. TID × 1 day; read-out: Tumor AUC at 24 hours, Average
QUANTITY_NAME: AUC at 24 h
Give the figure together with its unit, number first.

Could you please provide reported AUC at 24 h for `CCN(C)S(=O)(=O)Nc1ccc(F)c(Oc2ccc3ncn([C@H]4COC5(CCN(C6CC7(C6)CN(c6cc8c(cc6F)c(N6CCC(=O)NC6=O)nn8C)C7)CC5)C4)c(=O)c3c2)c1C#N` ? Thanks!
11900 ng·h/mL

---

Test: Pharmacokinetics in female BALB/c nude mice bearing A375 xenografts, 1 day dosing (PK and PD study): plasma, tumor and brain concentrations, AUC
Type: in vivo
Settings: mouse, brain, po, 100 mg/kg, 100 mg/kg p.o. QD × 1 day; 48 h; read-out: Mean Concentration in Brain ± SEM
QUANTITY_NAME: concentration at 48 h (ng/g)
Provide the reading as a plain figure in ng/g.

Could you please provide reported concentration at 48 h for CC(C)(C)c1nc(-c2cccc(NS(=O)(=O)c3c(F)cccc3F)c2F)c(-c2ccnc(N)n2)s1 [Dabrafenib, dabrafenib, reference compound] ? Thanks!
15.2

---

Assay: Example 9 pharmacokinetics assay for efficacy study Part I and II (plasma, liver)
Assay type: in vivo, BALB/c nude mice
Details: mouse, plasma, po; 100 mg/kg, p.o., QD × 14 days; 6 h following last treatment; ± SEM; read-out: Mean Concentration in Plasma
Method: For efficacy study Part I, agents were tested in the A375 human melanoma xenografts. Compound 218 and Compound 157 were administered to BALB/c nude mice bearing A375 xenografts from day 0 and dosed twice a day (BID) for 14 days. Compound 218 and Compound 157 were dosed at 10 mg/kg via p.o.. Dabrafenib was administered from day 1 daily (QD) for 14 days and dosed at 100 mg/kg via p.o.. For efficacy study Part II, agents were tested in the A375 human melanoma xenografts model. […]
QUANTITY_NAME: concentration at 6 h (ng/mL)
Provide the reading as a plain figure in ng/mL.

Could you please provide reported concentration at 6 h for CC(C)(C)c1nc(-c2cccc(NS(=O)(=O)c3c(F)cccc3F)c2F)c(-c2ccnc(N)n2)s1 [Dabrafenib, dabrafenib, reference compound] ? Thanks!
410

---

Experiment: Pharmacokinetics in female BALB/c nude mice bearing A375 xenografts, 1 day dosing (PK and PD study): plasma, tumor and brain concentrations, AUC
Format: in vivo
Conditions: mouse, plasma, po, 1 mg/kg, 1 mg/kg p.o. TID × 1 day; post 3rd dose; 24 h; read-out: Mean Concentration in Plasma ± SEM
QUANTITY_NAME: concentration at 24 h (ng/mL)
Provide the reading as a plain figure in ng/mL.

Could you please provide reported concentration at 24 h for CCN(C)S(=O)(=O)Nc1ccc(F)c(Oc2ccc3ncn(C4CC5(CCN(C6CC7(C6)CN(c6cc8c(cc6F)c(N6CCC(=O)NC6=O)nn8C)C7)CC5)C4)c(=O)c3c2)c1C#N (stereo not shown) ? Thanks!
10.5

---

Overview of recorded concentration at 24 h for various molecules
Assay: Pharmacokinetics after 21 days dosing in the efficacy study (plasma, tumor and brain concentrations; plasma AUC at steady state), Example 14
Type: in vivo, female BALB/c nude mice
Conditions: mouse, plasma, po; 1.5 mg/kg p.o. BID x 21 days; 24 h; mean ± SEM; read-out: Concentration in Plasma
Provide the reading as a plain figure in ng/mL.

MOLECULE	concentration at 24 h, ng/mL
CCN(C)S(=O)(=O)Nc1ccc(F)c(Oc2ccc3ncn([C@H]4COC5(CCN(C6CC7(C6)CN(c6cc8c(cc6F)c(N6CCC(=O)NC6=O)nn8C)C7)CC5)C4)c(=O)c3c2)c1C#N [Compound 26]	32.3

We now examine a further molecule.
Could you please provide reported concentration at 24 h for CCN(C)S(=O)(=O)Nc1ccc(F)c(Oc2ccc3ncn(C4CC5(CCN(C6CC7(C6)CN(c6cc8c(cc6F)c(N6CCC(=O)NC6=O)nn8C)C7)CC5)C4)c(=O)c3c2)c1C#N (centres unmarked) [Compound 141] ? Thanks!
11.2

---

Assay: Example 7 pharmacokinetics assay for PKPD study (plasma, tumor, liver)
Assay type: in vivo, BALB/c nude mice
Conditions: mouse, tumor, po; 100 mg/kg, p.o., single dose; 6 h; read-out: Concentration in Tumor (mean ± SEM)
QUANTITY_NAME: concentration at 6 h (ng/g)
Provide the reading as a plain figure in ng/g.

Could you please provide reported concentration at 6 h for CC(C)(C)c1nc(-c2cccc(NS(=O)(=O)c3c(F)cccc3F)c2F)c(-c2ccnc(N)n2)s1 [Dabrafenib, dabrafenib, reference compound] ? Thanks!
702

---

Tested on: A375-NRAS^Q61K cells
Assay: CTGlo Cell Viability Assay, A375-NRAS^Q61K (A375.11) cells, 96 hours
Type: cell-based, human
Conditions: Homo sapiens, 96 h, A375.11 (A375-NRAS^Q61K) cells
QUANTITY_NAME: GI50

Field: example entries. Status: answers known.
MOLECULE	GI50
Cn1nc(N2CCC(=O)NC2=O)c2cc(F)c(N3CC4(CC(N5CCC6(CC5)C[C@@H](n5cnc7ccc(Oc8c(F)ccc(NS(=O)(=O)C9CC9)c8C#N)cc7c5=O)CO6)C4)C3)cc21	< 1 µM
CCN(C)S(=O)(=O)Nc1ccc(F)c(Oc2ccc3ncn(C4CCC(N5CC6(CCN(c7cc8c(cc7F)c(N7CCC(=O)NC7=O)nn8C)CC6)C5)CC4)c(=O)c3c2)c1C#N (single isomer, unassigned)	1 to 10 µM
Cn1nc(N2CCC(=O)NC2=O)c2cc(F)c([C@H]3CC[C@@H](N4CCC5(CC4)CC(c4cnc6ccc(Oc7c(F)ccc(NS(=O)(=O)N8CC[C@@H](F)C8)c7C#N)cc6n4)C5)CC3)cc21 (single isomer, unassigned)	< 1 µM
COC1CN(S(=O)(=O)Nc2ccc(F)c(Oc3ccc4ncn(C5CC6(CCN(C7CC8(C7)CN(c7cc9c(cc7F)c(N7CCC(=O)NC7=O)nn9C)C8)CC6)C5)c(=O)c4c3)c2C#N)C1 (centres unmarked)	< 1 µM

Could you please provide reported GI50 for CCN(C)S(=O)(=O)Nc1ccc(F)c(Oc2ccc3ncc(OC4CCN(C5CCC(c6ccc(NC7CCC(=O)NC7=O)cc6F)CC5)CC4)nc3c2)c1C#N (single isomer, unassigned) ? Thanks!
> 10 µM

These data points were gathered from patent US20260297060A1.
